Assay: Primary qHTS for inhibitors of nuclear receptor binding SET domain protein 2 (NSD2) in an RCH-ACV wild type WT cells (2C) (AID 1645877); further: nearly all actives have a fitted effect of over 70% in size
Settings: RCH-ACV (leukaemia line) NSD2 WT (2C) viability, CellTiter-Glo, 72 h; series mostly up to 44.9 µM
Results filed as inconclusive are left out. Active and inactive are the calls of the source. The call rests on the fitted dose curve; in most records, active means well fitted inhibition curve with a large enough effect; inconclusive means small, poorly fitted or top-dose-only effect; inactive means no such curve, though single readings can be large or run the other way. Starred links: 1 amine or outer side, 2 acyl side, 3 side chain; linkers in the order of their positions; H or OH if unused. Positions of bridges follow the written chain, without caps; N, C: chain ends. Non-standard residues stand in square brackets, D forms with d. Residues, ends and D or L forms follow the SMILES beside them. Chains are numbered I, II in the order given. *: point of attachment. Actinocin(9to1) = Cc1c2oc3c(C)ccc(C(=O)[*:1])c3nc-2c(C(=O)[*:2])c(N)c1=O; NMeV = CN[CH](C(=O)O)C(C)C; Nva = CCC[C@H](N)C(=O)O; Cbz = O=C(OCc1ccccc1)*; Sar = CNCC(=O)O
Valid outcomes are listed here; reply with one: active, inactive

Request: # outcome recorded in this test, key = C[C@@H]1C(=O)O[C@H]2CC34[C@H]5C[C@@H](C(C)(C)C)C36[C@H](OC(=O)[C@@H]6O)O[C@@]4(C(=O)O5)[C@]21O (stereo not given in full)
Result: inactive

Request: # outcome recorded in this test, key = "c1cc(N[C@@H]2CCNC2)nc(-c2cnc3ccc(-c4cn[nH]c4)cn23)c1"
Result: active

Request: # outcome recorded in this test, key = "CCN(CC)CCCCNc1ncc2c(n1)N(C)C(=O)N(c1c(Cl)c(OC)cc(OC)c1Cl)C2"
Result: active

Request: # outcome recorded in this test, key = CC(N[C@H]1CCCC[C@H]1NC(=O)c1ccc(Cl)cc1)c1cccc2ccccc12 (stereo not given in full)
Result: active

Request: # outcome recorded in this test, key = "NC(=NCCCCCCN=C(N)N=C(N)Nc1ccc(Cl)cc1)N=C(N)Nc1ccc(Cl)cc1"
Result: active

Request: # outcome recorded in this test, key = "NC(=O)Nc1cc(-c2ccc(CN3CCOCC3)cc2)sc1C(N)=O"
Result: active

Request: # outcome recorded in this test, key = "C[C@@H](Cc1cc2c(c(C(N)=O)c1)N(CCCO)CC2)NCCOc1ccccc1OCC(F)(F)F"
Result: inactive

Request: # outcome recorded in this test, key = "Cn1cc(CNCC2CCN(c3ncc(C(=O)NO)cn3)CC2)c2ccccc21"
Result: active

Request: # outcome recorded in this test, key = "CC(C)Oc1ccc(C(=O)N[C@H](CNC(=O)CN(C)C)Cc2ccc(-c3cn4cccc([C@H](C)O)c4n3)cc2)cc1Cl"
Result: active

Request: # outcome recorded in this test, key = CCC[C@@H](C=O)NC(=O)[C@H](CC(C)C)NC(=O)[C@H](CC(C)C)NC(=O)OCc1ccccc1 (Cbz-Leu-Leu-[Nva]-aldehyde)
Result: active

Request: # outcome recorded in this test, key = CC(C)C[C@@H](C=O)NC(=O)[C@H](CC(C)C)NC(=O)[C@H](CC(C)C)NC(=O)OCc1ccccc1 (Cbz-Leu-Leu-Leu-aldehyde)
Result: active

Request: # outcome recorded in this test, key = "CCn1c(=O)c2c(nc(C=Cc3ccc(OC)c(OC)c3)n2C)n(CC)c1=O"
Result: inactive

Request: # outcome recorded in this test, key = "N#Cc1c(NC(=O)c2cccc3ccccc23)sc2c1CCCC2"
Result: active

Request: # outcome recorded in this test, key = C[C@H](CCC(=O)O)[C@H]1CCC2C3C[C@H](O)[C@@H]4C[C@H](O)CC[C@]4(C)C3CC[C@@]21C (stereo not given in full)
Result: inactive

Request: # outcome recorded in this test, key = "C=CC(=O)N1CCc2ccc(-n3c(=O)ccc4cnc5ccc(-c6cnn(C)c6)cc5c43)cc21"
Result: active

Request: # outcome recorded in this test, key = "C#Cc1cccc(Nc2ncnc3cc(OCCOC)c(OCCO)cc23)c1"
Result: active

Request: # outcome recorded in this test, key = "CC(C)(N)c1ccc(-c2nc3ccccc3nc2-c2ccccc2)cc1"
Result: active

Request: # outcome recorded in this test, key = Cc1c2oc3c(C)ccc(C(=O)NC4C(=O)NC(C(C)C)C(=O)N5CCCC5C(=O)N(C)CC(=O)N(C)C(C(C)C)C(=O)OC4C)c3nc-2c(C(=O)NC2C(=O)NC(C(C)C)C(=O)N3CCCC3C(=O)N(C)CC(=O)N(C)C(C(C)C)C(=O)OC2C)c(N)c1=O (stereo not given) (I: TVP[Sar][NMeV] / II: TVP[Sar][NMeV]; ester I:1-I:C, II:1-II:C; linker I:N-II:N via Actinocin(9to1); configuration not given here)
Result: active
